For each record, write down the corresponding growth inhibition.
assay: NCI Yeast Anticancer Drug Screen. Data for the rad50 strain (AID 155);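 note: 0% = growth of vehicle-only cultures of the same strain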; settings: S. cerevisiae rad50 strain growth inhibition; at 50.0 µM; hits give high values
This is part of a sample that, as a whole, favours compounds with a hit. Of some 79,000 tested, about 15% had one in any assay. Where a SMILES comes first, the peptide text is derived from it. [ ]: non-standard residue; d: D form. The star is where a group is joined. Cbz = O=C(OCc1ccccc1)*; Nva = CCC[CH](N)C(=O)O
Express the result in % but write the number alone.

Name the reported growth inhibition value associated with the molecule CCOC(=O)c1c[nH]c(=S)[nH]c1=O
9.25

Name the reported growth inhibition value associated with the molecule COc1cc(C)cc(OC)c1/C=C/C(=O)O
8.4

Name the reported growth inhibition value associated with the molecule Cc1ccc(S(=O)(=O)NNS(=O)(=O)c2ccc(C)cc2)cc1
5

Name the reported growth inhibition value associated with the molecule CN(C)/N=N/c1nc2c(c(=O)n(C)c(=O)n2C)n1CC(O)CO (stereo not given)
11.4

Name the reported growth inhibition value associated with the molecule Nc1c(N2CCCCC2)c(=O)nc2[nH]/c(=C\c3ccco3)c(=O)n12
5.45

Name the reported growth inhibition value associated with the molecule CCOC(OCC)c1ccccc1OC
1.85

Name the reported growth inhibition value associated with the molecule CCOC(=O)/C(O)=C(/C=NC(=S)c1ccncc1)C(=O)OCC
-28.2

Name the reported growth inhibition value associated with the molecule Cc1ccc2c(c1)-c1nc3nnnn3nc1C(C)(C)O2
21

Name the reported growth inhibition value associated with the molecule Cc1cc(-c2ccccc2)n(C(C(=O)c2ccccc2)c2ccccc2)n1 (stereo not given)
13.8

Name the reported growth inhibition value associated with the molecule CCOC(=O)C(NC(=O)Cc1ccccc1)C(=O)OCC
10.8

Name the reported growth inhibition value associated with the molecule CCN(CC)c1ccc(CO)cc1
7.65

Name the reported growth inhibition value associated with the molecule CC(C)C1OC2(C)OC(=N)C1(C#N)C(C#N)(C#N)C2C (stereo not given)
-0.75

Name the reported growth inhibition value associated with the molecule CCCCCC(O)c1ccc2c(c1)OCO2 (stereo not given)
13.8

Name the reported growth inhibition value associated with the molecule CCCCOC(=O)NC(=O)c1cc2cccc(OC)c2oc1=O
17.1

Name the reported growth inhibition value associated with the molecule Cc1ccc2nc(-c3ccc(-c4nc5ccc(C)cc5o4)c(O)c3)oc2c1
-36.3

Name the reported growth inhibition value associated with the molecule O=C(CN1CCCC1)Nc1ccc2c(c1)C1Oc3ccccc3CC1CO2 (stereo not given)
7.65

Name the reported growth inhibition value associated with the molecule CCC(=O)C(CCN(C)C)c1ccccc1 (stereo not given)
-10.4

Name the reported growth inhibition value associated with the molecule COc1cccc(N2C(=O)C3c4[nH]c5ccccc5c4C4CCCC4C3C2=O)c1 (stereo not given)
-36.5

Name the reported growth inhibition value associated with the molecule CC(C)Nc1ncnc2c1cnn2-c1ccccc1
-5.9

Name the reported growth inhibition value associated with the molecule N#CCc1ccc(C(C#N)C(=O)CCC(=O)C(C#N)c2ccc(CC#N)cc2)cc1 (stereo not given)
11.7

Name the reported growth inhibition value associated with the molecule Cc1cc(Cl)c(Cl)cc1NC(=O)c1ccccc1Cl
1.55

Name the reported growth inhibition value associated with the molecule COc1ccc2ccc3[nH]c4c(C)cnc(NCCCN(C)C)c4c3c2c1
34.8

Name the reported growth inhibition value associated with the molecule CCCC(NC(=O)OCc1ccccc1)C(=O)NC(CO)C(=O)O (stereo not given) (Cbz-[Nva]-Ser-OH; configuration not given here)
24.6

Name the reported growth inhibition value associated with the molecule C=CC[N+](CC)(CC)CC
12.3

Name the reported growth inhibition value associated with the molecule C[N+](C)(C)CC(=O)NC(=O)N/N=C\C(CC#N)CN(Cc1ccccc1)Cc1ccccc1 (stereo not given)
23.5

All values here come from PubChem BioAssay (NCI).
